Recorded values, source patent US20240182445A1.

test_target: human TREK-1 (Homo sapiens, UniProt O95069)
Construct: expressed in transfected cells
assay_comment: TREK-1 Thallium (Tl+) flux assay, Method 1
Type: cell-based
condition_set: TREK-1 Thallium (Tl+) flux assay; no *^12 (Method 2) mark on these rows
readout_label: IC50 (nM)

Study these solved cases before continuing.
| molecule | reported_value |
| --- | --- |
| CC(=O)N1CCC[C@H](Cn2ncc(Cl)c2C(=O)Nc2ncc(C#Cc3ccccc3)cc2C)C1 | 530 |
| Cc1cc(C#Cc2ccccc2)cnc1NC(=O)c1c(Cl)cnn1[C@H]1C[C@@H]2CN(C(=O)C3CC3)C[C@@H]2C1 | 490 |
| Cc1cc(C#Cc2ccccc2)cnc1NC(=O)c1c(Cl)cnn1CC1CCN(C(=O)C(C)C)CC1(F)F (stereo not shown) | 350 |
| Cc1cc(C#Cc2ccccc2)cnc1NC(=O)c1c(Cl)cnn1C1CCN(C(=O)C(F)(F)F)CC1 | 450 |
| CC(C)(C)OC(=O)N1CCC(n2ncc(Cl)c2C(=O)Nc2ncc(C#Cc3cccs3)cc2F)CC1 | 700 |

(P) Cc1cc(C#Cc2ccccc2)cnc1NC(=O)c1c(Cl)cnn1C1CC2(C1)CN(C(=O)C(C)C)C2
(Q) Cc1cc(C#Cc2cccs2)cnc1NC(=O)c1c(Cl)cnn1[C@H]1C[C@@H]2CN(C(=O)C(C)(C)C)C[C@@H]2C1
Hi! Which is lower in terms of IC50, the first one P or the second one Q ? Identify your pick by its label.
P

* * *

test_target: human TREK-1 (Homo sapiens, UniProt O95069)
Construct: expressed in transfected cells
Sequence (O95069 1-426): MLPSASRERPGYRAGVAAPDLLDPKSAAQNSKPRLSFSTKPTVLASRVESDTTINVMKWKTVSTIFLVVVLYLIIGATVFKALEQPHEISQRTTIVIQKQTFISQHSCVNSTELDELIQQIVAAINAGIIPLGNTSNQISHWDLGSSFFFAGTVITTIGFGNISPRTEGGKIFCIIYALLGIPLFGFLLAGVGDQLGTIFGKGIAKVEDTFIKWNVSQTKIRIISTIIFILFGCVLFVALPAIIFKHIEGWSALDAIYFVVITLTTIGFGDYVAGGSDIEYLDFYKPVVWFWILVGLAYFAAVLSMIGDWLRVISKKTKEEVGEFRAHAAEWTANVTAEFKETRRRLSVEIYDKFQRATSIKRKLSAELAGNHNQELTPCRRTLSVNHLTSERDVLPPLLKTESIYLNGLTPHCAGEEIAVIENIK
assay_comment: TREK-1 Thallium (Tl+) flux assay, Method 1
Assay type: cell-based
condition_set: TREK-1 Thallium (Tl+) flux assay; no *^12 (Method 2) mark on these rows
pIC50: −log10 of the molar value.
readout_label: pIC50

Known results for molecules:
| molecule | readout_label | reported_value |
| --- | --- | --- |
| Cc1cc(-c2cnn(-c3ccc(F)cc3)c2)cnc1NC(=O)c1c(Cl)cnn1CC1(C#N)CC1 | pIC50 | 5.92 |
| Cc1cc(C#Cc2ccccc2)cnc1NC(=O)c1c(Cl)cnn1C1CN(C(=O)OC(C)(C)C)C1 | pIC50 | 6.30 |
| Cc1cc(C#Cc2ccccc2)cnc1NC(=O)c1c(Cl)cnn1[C@@H]1CC[C@@H](NC(=O)OC(C)(C)C)C1 | pIC50 | 6.28 |

(a) Cc1cc(C#Cc2ccccc2)cnc1NC(=O)c1c(Cl)cnn1CC1(C#N)CC1
(b) Cc1cc(C#Cc2ccc(F)cc2)cnc1NC(=O)c1c(Cl)cnn1CC1CCN(C(=O)C(C)C)CC1(F)F (centres unmarked)
Kindly compare a with b and tell me which has the lower pIC50 figure. API: response body contains the label of the selected item.
b
(b: 6.09, a: 6.35)

(1) CC(C)(C#N)Cn1ncc(Cl)c1C(=O)Nc1ncc(C#Cc2ccccc2)cc1F
(2) Cc1cc(C#Cc2ccccc2)cnc1NC(=O)c1c(Cl)cnn1CCC1CCCO1 (centres unmarked)
Quick one: lower pIC50, 1 or 2 ? The response must carry the label of the picked entry.
2
